The reader will find reported Population Healthy Nuclei (%) values listed item by item below.
Tested on: U2OS
Procedure summary: Multiplex assay against U2OS
Format: toxicity, cell-based
Condition label: human, 24 h, 1 µM, compound concentration 1 uM, replicate 1

>  <Compound>
CN(C)C(=O)Cn1cc(-c2ccc(-c3cncc4ccccc34)cc2)cn1

>  <Population Healthy Nuclei (%)>
69%

$$$$
>  <Compound>
NCCc1cn(S(=O)(=O)c2c(Cl)nc3sccn23)c2ccccc12.O=C(O)C(=O)O

>  <Population Healthy Nuclei (%)>
66%

$$$$
>  <Compound>
Cl.N=C(N)NC(=O)Cc1c(Cl)cccc1Cl [GUANFACINE HYDROCHLORIDE]

>  <Population Healthy Nuclei (%)>
56%

$$$$
>  <Compound>
Cc1onc(-c2ccccc2Cl)c1C(=O)N(C)c1ccc(Cl)cc1

>  <Population Healthy Nuclei (%)>
70%

$$$$
>  <Compound>
CC(C)(C)c1cc(NC(=O)Nc2ccc(-c3cn4c(n3)sc3cc(OCCN5CCOCC5)ccc34)cc2)no1

>  <Population Healthy Nuclei (%)>
56%

$$$$
>  <Compound>
CCCCC1=NC2(CCCC2)C(=O)N1Cc1ccc(-c2ccccc2-c2nnn[nH]2)cc1

>  <Population Healthy Nuclei (%)>
69%

$$$$
>  <Compound>
COC[C@@H](c1ccc(C(F)(F)F)cc1)N1CCN(C2(C)CCN(C(=O)c3c(C)ncnc3C)CC2)C[C@@H]1C.O=C(O)/C=C\C(=O)O [VICRIVIROC MALEATE]

>  <Population Healthy Nuclei (%)>
67%

$$$$
>  <Compound>
Cc1cccc(NC(=O)CN2CCC(c3ccccn3)CC2)c1.Cl.Cl

>  <Population Healthy Nuclei (%)>
70%

$$$$
>  <Compound>
O=C(CCCc1ccccc1)Nc1nc2ccccc2c(=O)s1

>  <Population Healthy Nuclei (%)>
68%

$$$$
>  <Compound>
Cc1c(CC(=O)O)c2cccnc2n1Cc1ccc(S(C)(=O)=O)cc1C(F)(F)F

>  <Population Healthy Nuclei (%)>
71%

$$$$
>  <Compound>
CCCCC(=O)N(Cc1ccc(-c2ccccc2-c2nnn[nH]2)cc1)[C@H](C(=O)O)C(C)C

>  <Population Healthy Nuclei (%)>
68%

$$$$
>  <Compound>
CCCOc1ccc2[nH]cc(C3=CCNCC3)c2n1.Cl

>  <Population Healthy Nuclei (%)>
61%

$$$$
>  <Compound>
N#Cc1c(Oc2cccc(OS(=O)(=O)CCCC(F)(F)F)c2)cccc1C(F)(F)F

>  <Population Healthy Nuclei (%)>
61%

$$$$
>  <Compound>
CC(=O)Nc1cccc2c1c(Sc1ccc(Cl)cc1)c(C)n2CC(=O)O

>  <Population Healthy Nuclei (%)>
66%

$$$$
>  <Compound>
N#Cc1cc(F)cc(-c2nc(-c3ccc(F)cn3)no2)c1

>  <Population Healthy Nuclei (%)>
66%

$$$$
>  <Compound>
CN[C@@H](C)C(=O)N[C@H](C(=O)N1CCC[C@H]1C(=O)Nc1snnc1-c1ccccc1)C1CCCCC1

>  <Population Healthy Nuclei (%)>
55%

$$$$
>  <Compound>
Cc1cnc(-c2cc(N3CCN(C(=O)CCS(C)(=O)=O)CC3)ncc2Cl)c(C)c1

>  <Population Healthy Nuclei (%)>
62%

$$$$
>  <Compound>
CC(C)c1noc(N2CCC(COc3ccc(-c4ccc(S(C)(=O)=O)cc4)nc3)CC2)n1

>  <Population Healthy Nuclei (%)>
57%

$$$$
>  <Compound>
CN1CCN(c2cc(-c3ccccc3)nc(N)n2)CC1

>  <Population Healthy Nuclei (%)>
65%

$$$$
